- Tested on: HLA-A*69:01
- Protocol details: IEDB peptide-MHC binding, purified MHC/direct/fluorescence; filed as Kd, often an IC50 or EC50 that approximates it; bounds were set here for any values at or beyond the usual limits of such assays
- Condition info: source organism: Bacillus anthracis
Quantity: Kd (µM)

> print(dat)
    sequence  measure.unit  number
1  FLPDKAIDL            µM      17

###

- Tested on: HLA-A*02:03
- Protocol details: IEDB peptide-MHC binding, purified MHC/competitive/radioactivity; filed as Kd, often an IC50 or EC50 that approximates it; bounds were set here for any values at or beyond the usual limits of such assays
- Condition info: source organism: Lassa virus Josiah
pKd: −log10 of the molar value.
pKd values for the sequences below.
Quantity: pKd

> print(dat)
     sequence  quantity  number
1  YLISIFLHLV       pKd    8.76
2   SLYKGVYEL       pKd    8.24
3  SIINHKFCNL       pKd    6.25

###

- Tested on: HLA-B*15:01
- Protocol details: IEDB peptide-MHC binding, purified MHC/direct/fluorescence; filed as Kd, often an IC50 or EC50 that approximates it; bounds were set here for any values at or beyond the usual limits of such assays
- Condition info: source organism: Escherichia coli O157:H7
Quantity: Kd

> print(dat)
    sequence    tested.on  quantity    result
1  QMRVRYYGL  HLA-B*15:01        Kd   ≥ 20 µM
2  DPRDDLSGM  HLA-B*15:01        Kd   ≥ 20 µM
3  VMAASGAPF  HLA-B*15:01        Kd  0.019 µM
4  KPKLKVATL  HLA-B*15:01        Kd   ≥ 20 µM
5  DISPTNIPL  HLA-B*15:01        Kd   ≥ 20 µM
6  ATISYRIKL  HLA-B*15:01        Kd   ≥ 20 µM

###

- Tested on: HLA-B*39:01
- Protocol details: IEDB peptide-MHC binding, purified MHC/competitive/fluorescence; filed as Kd, often an IC50 or EC50 that approximates it; bounds were set here for any values at or beyond the usual limits of such assays
- Condition info: source organism: Bacillus anthracis str. Ames
pKd: −log10 of the molar value.
Quantity: pKd

> print(dat)
    sequence    tested.on  result
1  VILYFMYRK  HLA-B*39:01  ≤ 4.70

###

- Tested on: HLA-A*31:01
- Protocol details: IEDB peptide-MHC binding, purified MHC/direct/fluorescence; filed as Kd, often an IC50 or EC50 that approximates it; bounds were set here for any values at or beyond the usual limits of such assays
- Condition info: source organism: Shigella flexneri
Quantity: Kd (µM)

> print(dat)
    sequence  quantity  number
1  VVISKKDTY        Kd     5.5

###

- Tested on: HLA-B*57:01
- Protocol details: IEDB peptide-MHC binding, purified MHC/competitive/fluorescence; filed as Kd, often an IC50 or EC50 that approximates it; bounds were set here for any values at or beyond the usual limits of such assays
- Condition info: source organism: Cryptosporidium parvum Iowa II
pKd: −log10 of the molar value.
Quantity: pKd

> print(dat)
    sequence  result
1  SGLPGIFIV  ≤ 4.70

###

- Tested on: HLA-A*24:03
- Protocol details: IEDB peptide-MHC binding, purified MHC/competitive/fluorescence; filed as Kd, often an IC50 or EC50 that approximates it; bounds were set here for any values at or beyond the usual limits of such assays
- Condition info: source organism: Yersinia pestis Antiqua
Quantity: Kd

> print(dat)
    sequence   result
1  PLTNQRYRV  ≥ 20 µM
